Method: Drug metabolism in rat liver microsomes incubated for 15 mins
Type: ADME, Microsome
Reported Conditions: read-out: Drug metabolism
Measure Name: metabolised at 0.25 h (%)
Value expressed in %; do not type the unit.

Query block: Request the reported metabolised at 0.25 h associated with Cc1ccc(-n2nccn2)c(C(=O)N2CCCO[C@H]2Cn2ccc(-c3ccc(F)cn3)n2)c1
Result block: 51

* * *

I'd be grateful if you could share measured IC50 for these entries.
Target Under Test: Orexin receptor type 2 (Homo sapiens, UniProt O43614)
Sequence (O43614 whole entry): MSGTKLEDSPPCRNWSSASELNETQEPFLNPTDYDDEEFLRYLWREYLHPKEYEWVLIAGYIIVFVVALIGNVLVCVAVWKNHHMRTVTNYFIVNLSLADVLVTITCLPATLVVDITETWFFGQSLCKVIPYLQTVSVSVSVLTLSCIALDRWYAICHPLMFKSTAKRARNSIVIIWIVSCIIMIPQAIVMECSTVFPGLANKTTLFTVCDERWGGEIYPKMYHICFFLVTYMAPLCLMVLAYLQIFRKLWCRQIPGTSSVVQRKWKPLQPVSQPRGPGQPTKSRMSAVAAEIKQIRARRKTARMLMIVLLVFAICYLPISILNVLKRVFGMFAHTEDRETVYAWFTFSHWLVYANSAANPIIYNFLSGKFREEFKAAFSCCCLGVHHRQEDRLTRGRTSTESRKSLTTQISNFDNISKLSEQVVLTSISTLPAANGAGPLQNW
Method: Antagonist activity at human recombinant OX2R expressed in CHOK1 cells assessed as inhibition of orexin A-induced intracellular Ca2+ release preincubated for 30 mins followed by orexin-A stimulation by Fluo-4AM dye based fluorescence analysis
// return the numeric value with its unit appended

Query block: Any idea what IC50 was measured for Cc1ccc(-n2nccn2)c(C(=O)N2CCCO[C@H]2Cc2noc(-c3ccc(F)cn3)n2)c1 ?
Result block: 3.6 nM

Query block: Which IC50 is reported for this molecule? Cc1ccc(-n2nccn2)c(C(=O)N2CCCO[C@@H]2Cn2ccc(-c3ccc(F)cn3)n2)c1
Result block: 274 nM

Query block: Fill in the blank: the reported IC50 of Cc1ccc(-n2nccn2)c(C(=O)N2CCC[C@@H]2Cn2ccc(-c3ccc(F)cn3)n2)c1 is ____.
Result block: 313 nM

Query block: Could you share which IC50 value was measured for Cc1ccc(-n2nccn2)c(C(=O)N2COCC[C@H]2Cn2ccc(-c3ccc(F)cn3)n2)c1 ?
Result block: 3.41 nM

Query block: Data request, read-out IC50, for O=C(c1cc(F)ccc1-n1nccn1)N1CCCO[C@H]1Cn1ccc(-c2ccc(F)cn2)n1
Result block: 1.96 nM

Query block: Can you look up the measured IC50 of Cc1ccc(-n2nccn2)c(C(=O)N2CCCO[C@H]2Cn2ccc(-c3ccc(F)cn3)n2)c1 for me?
Result block: 1.27 nM

Query block: Which IC50 value belongs to CCN(CCn1ccc(-c2ccc(F)cn2)n1)C(=O)c1ccccc1-n1nccn1 ?
Result block: 38.7 nM

Query block: Need IC50, item Cc1ccc(-n2nccn2)c(C(=O)N2CCCO[C@H]2Cn2ncn(-c3ccc(F)cn3)c2=O)c1
Result block: 5.4 nM

Query block: Value lookup for IC50; key = Cc1ccc(-n2nccn2)c(C(=O)N2CCCO[C@H]2Cn2cc(-c3ccc(F)cn3)nn2)c1
Result block: 3.07 nM

Query block: Returns the measured IC50 for the input molecule. Input: Cc1ccc(-n2nccn2)c(C(=O)N2CSC[C@H]2Cn2ccc(-c3ccc(F)cn3)n2)c1
Result block: 13.1 nM

Query block: Need IC50 of Cc1ccc(-n2nccn2)c(C(=O)N2CCCC[C@H]2Cn2ccc(-c3ccc(F)cn3)n2)c1 , thanks.
Result block: 1.64 nM
